# assay details: Viking EC50, 50% NHS
# Format: cell-based
# assay setup: method not described, read-out: Viking EC50_50% NHS
Task for the reader: assign each of the following molecules its reported pEC50.
Give bare numbers, as −log10 of the molar value.

Solved entries (count: 2):
Cc1ccc(Cn2cnc(C(F)(F)C(F)(F)F)c(Oc3cc(Cl)cc(C#N)c3F)c2=O)c(=O)[nH]1 : 7.11
CC(F)c1ncn(Cc2ccc(CO)[nH]c2=O)c(=O)c1Oc1cc(Cl)cc(C#N)c1F (single isomer, unassigned) [Example 32] : 7.74

For every item below, please supply its pEC50.
1. Cc1cc(C)c(Cn2cnc(C(F)(F)C(F)F)c(Oc3cc(Cl)cc(C#N)c3)c2=O)c(=O)[nH]1
2. Cc1cc(C)c(Cn2cnc(C(F)(F)F)c(Oc3cc(C(F)F)cc(C#N)c3C)c2=O)c(=O)[nH]1
3. Cc1c(C#N)cc(C(F)F)cc1Oc1c(C(F)(F)C(F)F)ncn(Cc2ccc(C(C)(C)O)[nH]c2=O)c1=O
4. Cc1cc(C)c(Cn2cnc(C(C)(F)F)c(Oc3cc(Cl)cc(C#N)c3F)c2=O)c(=O)[nH]1
5. COCc1ccc(Cn2cnc(C(F)(F)C(F)F)c(Oc3cc(Cl)cc(C#N)c3F)c2=O)c(=O)[nH]1

Output:
[7.43, 7.37, 7.53, 7.43, 7.53]

For every item below, please supply its pEC50.
1. Cc1ccc(Cn2cnc(C(C)(F)F)c(Oc3cc(Cl)cc(C#N)c3F)c2=O)c(=O)[nH]1
2. N#Cc1cc(Cl)cc(Oc2c(C(F)(F)F)ncn(Cc3cc(F)c[nH]c3=O)c2=O)c1F
3. Cc1c(C#N)cc(C(F)F)cc1Oc1c(C(F)(F)C(F)(F)F)ncn(Cc2ccc[nH]c2=O)c1=O
4. COCc1ccc(Cn2cnc(C(F)(F)C(F)F)c(Oc3cc(C(F)F)cc(C#N)c3C)c2=O)c(=O)[nH]1
5. Cc1c(C#N)cc(C(F)F)cc1Oc1c(C(F)(F)C(F)F)ncn(Cc2ccc(-c3cn[nH]c3)[nH]c2=O)c1=O

Output:
7.85
7.49
7.28
7.53
7.11

For every item below, please supply its pEC50.
1. Cc1ccc(Cn2cnc(C(F)(F)C(F)F)c(Oc3cc(C(F)F)cc(C#N)c3C)c2=O)c(=O)[nH]1
2. N#Cc1cc(Cl)cc(Oc2c(C(F)(F)C(F)F)ncn(Cc3ccc(CO)[nH]c3=O)c2=O)c1F
3. Cc1cc(C#N)c(C)c(Oc2c(C(F)(F)C(F)F)ncn(Cc3c(C)cc(C)[nH]c3=O)c2=O)c1

Output:
7.31
7.68
6.77
